# Tested on: Saccharomyces cerevisiae;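 further: PSI is a weighted mean of sequencing reads over stability bins, variants kept only with over 10 reads, mCherry proximal and sfGFP distal, peptide attached via GGGS linker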
# Protocol details: protein stability index of tFT-peptide fusion (C-terminal peptide) (PSI (0-1 scale)); higher = more stable (slower turnover)
# Condition context: genetic background: wild type; temperature: 30 C
Measurement type: protein stability index

INSERT INTO assay_data (biopolymer_sequence, measurement_type, numeric_readout) VALUES
  ('PPSPPPPTGLCL', 'protein stability index', 0.745),
  ('SKGQLRLNMCIL', 'protein stability index', 0.662),
  ('AKLNQLMSKSQI', 'protein stability index', 0.678),
  ('GSSPVWRVAGAG', 'protein stability index', 0.721),
  ('LPHSPHRAAYPN', 'protein stability index', 0.8),
  ('SGVGLAETAGDD', 'protein stability index', 0.68),
  ('DLPVPRPGTLQV', 'protein stability index', 0.655),
  ('KCRGRGRQEAFE', 'protein stability index', 0.664),
  ('AFLTSYHPPPLP', 'protein stability index', 0.69),
  ('CCVSFFISFGGR', 'protein stability index', 0.554),
  ('TGIDLPHFVSLF', 'protein stability index', 0.658),
  ('KIKESIKIKKKR', 'protein stability index', 0.679),
  ('WVLFWWRGRSGR', 'protein stability index', 0.665),
  ('PSPSAGPAPTPL', 'protein stability index', 0.65),
  ('CSWNLLAHPPAQ', 'protein stability index', 0.744),
  ('DRAPPPPRSSPL', 'protein stability index', 0.733),
  ('FGLPFPSNIVSG', 'protein stability index', 0.757),
  ('GVRPWGGMCSCL', 'protein stability index', 0.705),
  ('APPPPPPPPSFP', 'protein stability index', 0.687);

This collection of values is drawn from the supplement of paper PMC10724198.
